Where these numbers come from: paper PMC2756588

Measured on: T1, Pex13, P80667
T1 sequence (P80667 295-386, looked up): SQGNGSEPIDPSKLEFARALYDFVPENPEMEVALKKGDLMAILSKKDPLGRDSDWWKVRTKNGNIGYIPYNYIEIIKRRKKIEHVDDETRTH
Procedure details: SPOT array
Experimental parameters: median of control spots 1341
Hi! Could you tag entries with SPOT intensity below 4 as condition met, and those at or above as condition not met? Much appreciated.

Problem: Please let me know if GRLRPKRIAPWHLIQ shows SPOT intensity below 4.
Solution: condition not met

Problem: Say whether its SPOT intensity is strictly beneath 4. Entry: WRPRIVPILPYITRL
Solution: condition not met

Problem: Does RSLRKRPTSPSISGS have SPOT intensity strictly under 4?
Solution: condition not met

Problem: Take the binder PPPPPPPPPPPLPQS and say whether its SPOT intensity is less than 4.
Solution: condition met

Problem: Does the reported SPOT intensity of the following binder sit strictly below 4? RRSKSLPTTPGIRSG
Solution: condition not met

Problem: Hi there! Is SPOT intensity for KTKQQKPAIPQKKSF below 4, do you know?
Solution: condition not met

Problem: I'd appreciate it if you could check whether DRIRMFIRFPKFLLE has SPOT intensity smaller than 4.
Solution: condition not met

Problem: Is SPOT intensity strictly under 4 for the entry DLPLPDLPPEPPTEL ?
Solution: condition met

Problem: For the binder VQKRKLPLPGSIASA , is SPOT intensity under 4?
Solution: condition met

Problem: Hello, is SPOT intensity of the following binder strictly smaller than 4? VKPRQLFPIPLNKVD
Solution: condition met

Problem: Find out if reported SPOT intensity for PKRRAPPPVPKKPSS is less than 4
Solution: condition not met

Problem: Criterion: SPOT intensity strictly below 4. Is it met by KDKSRPPRPPPKPLH ?
Solution: condition not met
